Target: human recombinant HDAC6 (Homo sapiens, UniProt Q9UBN7)
Sequence (Q9UBN7 1-1215): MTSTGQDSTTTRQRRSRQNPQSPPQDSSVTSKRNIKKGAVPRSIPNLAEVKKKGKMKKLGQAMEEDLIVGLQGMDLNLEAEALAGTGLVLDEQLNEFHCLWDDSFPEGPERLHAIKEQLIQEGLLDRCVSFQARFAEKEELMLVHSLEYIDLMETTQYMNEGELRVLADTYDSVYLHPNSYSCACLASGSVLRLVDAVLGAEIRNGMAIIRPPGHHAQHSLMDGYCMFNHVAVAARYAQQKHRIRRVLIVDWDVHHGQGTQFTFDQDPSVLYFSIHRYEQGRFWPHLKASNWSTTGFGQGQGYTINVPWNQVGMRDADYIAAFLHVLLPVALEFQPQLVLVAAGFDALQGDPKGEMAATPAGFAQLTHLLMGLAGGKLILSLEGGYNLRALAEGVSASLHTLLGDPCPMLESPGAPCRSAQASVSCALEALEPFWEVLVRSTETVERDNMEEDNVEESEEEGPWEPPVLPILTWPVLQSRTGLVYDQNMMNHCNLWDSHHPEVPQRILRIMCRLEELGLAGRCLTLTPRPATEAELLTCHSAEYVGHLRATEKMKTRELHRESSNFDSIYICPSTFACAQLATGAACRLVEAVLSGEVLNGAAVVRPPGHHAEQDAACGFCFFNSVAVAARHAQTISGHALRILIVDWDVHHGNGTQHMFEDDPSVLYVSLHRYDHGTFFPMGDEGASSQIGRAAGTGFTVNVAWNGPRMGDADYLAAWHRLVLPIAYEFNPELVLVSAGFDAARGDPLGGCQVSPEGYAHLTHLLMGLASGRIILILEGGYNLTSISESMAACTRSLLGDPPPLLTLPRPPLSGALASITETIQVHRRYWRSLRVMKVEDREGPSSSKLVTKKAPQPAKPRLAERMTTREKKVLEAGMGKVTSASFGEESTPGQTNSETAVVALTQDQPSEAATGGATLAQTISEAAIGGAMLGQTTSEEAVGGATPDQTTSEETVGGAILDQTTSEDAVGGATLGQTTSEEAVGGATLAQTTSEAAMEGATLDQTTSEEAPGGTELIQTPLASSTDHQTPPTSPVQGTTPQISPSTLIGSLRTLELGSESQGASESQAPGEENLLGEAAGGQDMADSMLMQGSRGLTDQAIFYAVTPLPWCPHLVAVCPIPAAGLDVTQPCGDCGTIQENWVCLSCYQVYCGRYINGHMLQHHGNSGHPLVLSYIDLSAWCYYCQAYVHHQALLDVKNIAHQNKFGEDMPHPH
Experiment: HDAC6 enzyme activity inhibition assay (HDAC Fluorimetric Drug Discovery Kit)
Conditions: same protocol as the HDAC1 enzyme activity test
readout_label: IC50 (nM)

{"molecule": "CN1CCC(S(=O)(=O)N(Cc2ccc(-c3nnc(C(F)F)o3)cc2)c2ccccc2)CC1 [Compound 11637]", "unit_abbrev": "nM", "IC50": 20}
{"molecule": "CS(=O)(=O)N(Cc1ccc(-c2nnc(C(F)F)o2)cn1)c1cccnc1 [Compound 11353]", "unit_abbrev": "nM", "IC50": 26}
{"molecule": "CN(C)[C@@H]1CCN(CCS(=O)(=O)N(Cc2ccc(-c3nnc(C(F)F)o3)cc2)c2ccccc2)C1 [Compound 11754]", "unit_abbrev": "nM", "IC50": 70.4}
{"molecule": "CCS(=O)(=O)N(Cc1ccc(-c2nnc(C(F)F)o2)cc1F)c1cccc(CN2CCN(C)CC2)c1 [Compound 11405]", "unit_abbrev": "nM", "IC50": 67}

1 = CS(=O)(=O)N(Cc1ccc(-c2nnc(C(F)(F)F)o2)nn1)c1ccccc1 [Compound 11567]
2 = COCC(C)CS(=O)(=O)N(Cc1ccc(-c2nnc(C(F)F)o2)cc1F)c1ccccc1 (centres unmarked) [Compound 11288]
3 = O=S(=O)(CCCN1CCCCC1)N(Cc1ccc(-c2nnc(C(F)F)o2)cc1)c1ccccc1 [Compound 11657]
4 = Cc1cccc(N(Cc2ccc(-c3nnc(C(F)F)o3)cc2)S(=O)(=O)C2CCN(C3COC3)CC2)c1 [Compound 11682]
Please produce an ascending ranking of these molecules based on IC50. // list labels; follow requested order
4, 2, 3, 1
(4: 22 nM, 2: 47 nM, 3: 82 nM, 1: 4330 nM)

* * *

Molecular target: human recombinant HDAC6 (Homo sapiens)
Construct: purchased Calbiochem 382180
Sequence (Q9UBN7 1-1215): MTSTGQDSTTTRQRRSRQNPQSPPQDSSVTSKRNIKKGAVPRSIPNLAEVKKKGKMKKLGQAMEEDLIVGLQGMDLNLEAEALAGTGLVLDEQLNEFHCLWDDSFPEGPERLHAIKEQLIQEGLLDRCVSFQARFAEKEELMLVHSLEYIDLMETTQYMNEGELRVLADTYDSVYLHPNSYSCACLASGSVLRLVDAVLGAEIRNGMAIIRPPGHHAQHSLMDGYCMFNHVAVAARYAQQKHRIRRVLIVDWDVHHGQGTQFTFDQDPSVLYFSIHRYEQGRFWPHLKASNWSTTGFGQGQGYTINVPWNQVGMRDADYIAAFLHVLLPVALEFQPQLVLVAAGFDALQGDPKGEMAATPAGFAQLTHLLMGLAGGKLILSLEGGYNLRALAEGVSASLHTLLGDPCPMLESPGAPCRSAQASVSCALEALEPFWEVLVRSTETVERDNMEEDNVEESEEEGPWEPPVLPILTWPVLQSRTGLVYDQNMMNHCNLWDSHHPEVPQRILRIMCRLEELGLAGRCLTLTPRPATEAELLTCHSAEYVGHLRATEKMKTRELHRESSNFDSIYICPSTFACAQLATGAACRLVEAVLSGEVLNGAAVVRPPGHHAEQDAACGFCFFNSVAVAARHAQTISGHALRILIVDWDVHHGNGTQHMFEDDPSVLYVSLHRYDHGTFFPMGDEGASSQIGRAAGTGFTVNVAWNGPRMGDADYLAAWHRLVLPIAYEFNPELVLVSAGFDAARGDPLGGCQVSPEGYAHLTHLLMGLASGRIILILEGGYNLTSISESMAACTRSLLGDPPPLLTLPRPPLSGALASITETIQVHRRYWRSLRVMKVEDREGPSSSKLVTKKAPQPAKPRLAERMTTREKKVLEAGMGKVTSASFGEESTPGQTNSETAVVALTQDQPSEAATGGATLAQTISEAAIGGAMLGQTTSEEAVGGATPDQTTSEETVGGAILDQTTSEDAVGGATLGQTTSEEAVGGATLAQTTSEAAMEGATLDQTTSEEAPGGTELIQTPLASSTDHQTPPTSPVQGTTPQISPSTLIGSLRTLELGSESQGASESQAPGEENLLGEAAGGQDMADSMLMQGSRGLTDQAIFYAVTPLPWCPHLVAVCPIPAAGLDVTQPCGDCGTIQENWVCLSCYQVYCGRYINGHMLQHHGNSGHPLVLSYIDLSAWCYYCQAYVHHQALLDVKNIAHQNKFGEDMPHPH
Test: HDAC6 enzyme activity inhibition assay (HDAC Fluorimetric Drug Discovery Kit)
Assay type: biochemical
Settings: HDAC1 vs HDAC6
readout_label: HDAC6 selectivity (fold)

{"smiles_input": "O=S(=O)(C1CCN(C2COC2)CC1)N(Cc1ccc(-c2nnc(C(F)F)o2)cc1F)c1ccccc1", "HDAC6 selectivity (fold)": 719}

A = CS(=O)(=O)N(Cc1ccc(-c2nnc(C(F)(F)F)o2)cc1F)c1ccc(F)cc1
B = O=S(=O)(CCN1CCN(C2COC2)CC1)N(Cc1ccc(-c2nnc(C(F)F)o2)cc1F)c1ccc(F)c(Cl)c1
Returns: the label, A or B , whose recorded HDAC6 selectivity (fold) is the lower number. // caller expects the label of the chosen entry
A

* * *

Target: human recombinant HDAC6 (Homo sapiens, UniProt Q9UBN7)
Construct: purchased Calbiochem 382180
Sequence (Q9UBN7 1-1215): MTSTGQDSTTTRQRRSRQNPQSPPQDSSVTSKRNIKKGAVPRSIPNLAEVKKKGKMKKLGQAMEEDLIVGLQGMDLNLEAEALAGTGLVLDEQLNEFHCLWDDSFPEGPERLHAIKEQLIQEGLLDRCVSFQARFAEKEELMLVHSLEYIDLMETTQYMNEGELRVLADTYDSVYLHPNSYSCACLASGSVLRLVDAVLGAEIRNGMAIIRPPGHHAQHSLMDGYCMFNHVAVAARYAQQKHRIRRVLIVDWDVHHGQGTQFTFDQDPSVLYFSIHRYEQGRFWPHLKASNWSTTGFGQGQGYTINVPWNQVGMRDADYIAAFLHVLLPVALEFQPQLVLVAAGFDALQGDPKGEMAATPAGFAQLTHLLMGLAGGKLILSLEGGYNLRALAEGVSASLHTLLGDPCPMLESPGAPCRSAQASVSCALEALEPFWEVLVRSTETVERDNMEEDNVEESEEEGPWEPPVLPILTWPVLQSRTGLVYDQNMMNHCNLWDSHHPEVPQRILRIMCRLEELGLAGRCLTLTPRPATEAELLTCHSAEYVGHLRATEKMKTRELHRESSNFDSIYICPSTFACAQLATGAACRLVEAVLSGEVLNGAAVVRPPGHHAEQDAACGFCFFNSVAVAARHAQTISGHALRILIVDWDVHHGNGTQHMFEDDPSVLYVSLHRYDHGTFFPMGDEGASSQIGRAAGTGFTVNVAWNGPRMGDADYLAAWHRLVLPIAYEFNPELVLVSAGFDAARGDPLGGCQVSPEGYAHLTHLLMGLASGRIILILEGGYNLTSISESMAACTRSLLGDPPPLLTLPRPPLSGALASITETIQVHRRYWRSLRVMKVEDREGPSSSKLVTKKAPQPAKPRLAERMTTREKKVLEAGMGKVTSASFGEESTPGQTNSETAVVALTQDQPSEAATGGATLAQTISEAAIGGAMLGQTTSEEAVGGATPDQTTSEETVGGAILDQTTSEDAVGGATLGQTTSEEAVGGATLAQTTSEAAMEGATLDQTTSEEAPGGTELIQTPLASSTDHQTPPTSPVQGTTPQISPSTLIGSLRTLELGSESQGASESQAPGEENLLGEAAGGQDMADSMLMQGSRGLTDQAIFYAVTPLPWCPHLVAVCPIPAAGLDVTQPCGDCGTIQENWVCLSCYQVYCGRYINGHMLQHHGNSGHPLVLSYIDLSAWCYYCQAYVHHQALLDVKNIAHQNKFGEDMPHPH
Test: HDAC6 enzyme activity inhibition assay (HDAC Fluorimetric Drug Discovery Kit)
Format: biochemical
Conditions: HDAC1 vs HDAC6
readout_label: HDAC6 selectivity (fold)

{"smiles_input": "O=S(=O)(CCN1CCOCC1)N(Cc1ccc(-c2nnc(C(F)F)o2)cc1)c1ccccc1", "readout_label": "HDAC6 selectivity (fold)", "readout_value": 1724}
{"smiles_input": "O=S(=O)(CCn1cnc(CO)c1)N(Cc1ccc(-c2nnc(C(F)F)o2)cc1)c1ccccc1", "readout_label": "HDAC6 selectivity (fold)", "readout_value": 2881}
{"smiles_input": "CS(=O)(=O)N(Cc1ccc(-c2nnc(C(F)F)o2)cc1F)c1ccc(Cl)cc1", "readout_label": "HDAC6 selectivity (fold)", "readout_value": 2273}

Where do these numbers come from? They come from patent US10538498B2.
